Tested on: PC-3
Experiment summary: Cytotoxicity against human PC3 cells assessed as cell growth inhibition after 24 hrs by MTT assay
Type: functional, cell-based
Condition notes: PC-3, 24 h
pIC50: −log10 of the molar value.
Below is a list of entries, each paired with its recorded pIC50 value.
Readout: pIC50

compound="O=C1C[C@@H](c2ccc(-c3ccccc3)cc2)N2CCc3cc(OCc4ccccc4)c(OCc4ccccc4)cc3[C@@H]2C1 (relative stereo)" readout_value="< 4.70"
compound=CC1(C)CC(=O)C[C@H]2c3cc(OCc4ccccc4)c(OCc4ccccc4)cc3CCN21 readout_value="< 4.70"
compound="C[C@@H]1CC(=O)C[C@H]2c3cc(OCc4ccc(Br)cc4)c(OCc4ccc(Br)cc4)cc3CCN12 (relative stereo)" readout_value="< 4.70"
compound=O[C@@H]1C[C@@H](c2ccccc2)N2CCc3ccccc3[C@@H]2C1 readout_value="< 4.70"
compound=COc1ccc([C@@H]2C[C@@H](O)C[C@H]3c4cc(OCc5cc(C)cc(C)c5)c(OCc5cc(C)cc(C)c5)cc4CCN23)cc1OC readout_value=5.94
compound=O[C@@]1(c2ccccc2)C[C@@H](c2ccccc2)N2CCc3cc(OCc4ccccc4)c(OCc4ccccc4)cc3[C@@H]2C1 readout_value="< 4.70"
compound=C[C@@H]1C[C@@](C)(O)C[C@H]2c3cc(OCc4ccccc4)c(OCc4ccccc4)cc3CCN12 readout_value=5.59

----------
Test system: RWPE-1
Experiment summary: Cytotoxicity against human RWPE1 cells assessed as cell growth inhibition after 24 hrs by MTT assay
Type: cell-based
Condition notes: RWPE-1, 24 h
pIC50: −log10 of the molar value.
Below is a list of entries, each paired with its recorded pIC50 value.
Readout: pIC50

molecule=O[C@@]1(c2ccccc2)C[C@@H](c2ccccc2)N2CCc3cc(OCc4ccccc4)c(OCc4ccccc4)cc3[C@@H]2C1 readout_value="< 4.70"
molecule=CCC[C@@H]1C[C@H](O)C/C=C(/CC)[C@H]2c3cc(OCc4ccccc4)c(OCc4ccccc4)cc3CCN12 readout_value="< 4.70"
molecule="O=C1C[C@@H](c2ccccc2)N2CCc3ccccc3[C@@H]2C1 (relative stereo)" readout_value="< 4.70"
molecule=C[C@@]1(O)C[C@@H](c2ccccc2)N2CCc3cc(OCc4ccccc4)c(OCc4ccccc4)cc3[C@@H]2C1 readout_value=5.69
molecule=COc1ccc([C@@H]2C[C@H](O)C[C@H]3c4cc(OCc5ccccc5)c(OCc5ccccc5)cc4CCN23)cc1OC readout_value="< 4.70"
molecule="CCOC1c2cc(OCc3cc(C)cc(C)c3)c(OCc3cc(C)cc(C)c3)cc2CCN1C(=O)OC(C)(C)C (stereo not given)" readout_value="< 4.70"
molecule=O[C@@H]1C[C@@H](c2ccccc2)N2CCc3cc4c(cc3[C@@H]2C1)OCO4 readout_value="< 4.70"
molecule="CC[C@@H]1CC(=O)C[C@H]2c3cc(OCc4ccccc4)c(OCc4ccccc4)cc3CCN12 (relative stereo)" readout_value="< 4.70"
molecule=O[C@@H]1C[C@@H](c2ccccc2)N2CCc3cc(OCc4ccccc4)c(OCc4ccccc4)cc3[C@@H]2C1 readout_value="4.06 to 4.40"
molecule=C[C@@H]1C[C@@](C)(O)C[C@H]2c3cc(OCc4cccc(F)c4)c(OCc4cccc(F)c4)cc3CCN12 readout_value=5.73
molecule=O=[N+]([O-])c1ccc([C@@H]2C[C@H](O)C[C@H]3c4cc(OCc5ccccc5)c(OCc5ccccc5)cc4CCN23)cc1 readout_value="< 4.70"
molecule=O[C@@H]1C[C@@H](c2ccccc2)N2CCc3ccc(OCc4ccccc4)cc3[C@@H]2C1 readout_value="< 4.70"
molecule="O=C1C[C@@H](c2ccccc2)N2CCc3cc(OCc4ccccc4)c(OCc4ccccc4)cc3[C@@H]2C1 (relative stereo)" readout_value="< 4.70"
molecule="O=C1C[C@@H](c2ccc(-c3ccccc3)cc2)N2CCc3cc(OCc4ccccc4)c(OCc4ccccc4)cc3[C@@H]2C1 (relative stereo)" readout_value="< 4.70"
molecule=COc1ccc([C@@H]2C[C@H](O)C[C@H]3c4cc(OCc5ccccc5)c(OCc5ccccc5)cc4CCN23)cc1 readout_value="< 4.70"
molecule=C[C@@H]1C[C@@H](O)C[C@H]2c3cc(OCc4cc(F)cc(F)c4)c(OCc4cc(F)cc(F)c4)cc3CCN12 readout_value=5.35
molecule=C[C@@H]1C[C@@H](O)C[C@H]2c3cc(OCc4ccc(C(C)(C)C)cc4)c(OCc4ccc(C(C)(C)C)cc4)cc3CCN12 readout_value=5.72
molecule=COc1ccc([C@@H]2C[C@@H](O)C[C@H]3c4cc(OCc5cc(F)cc(F)c5)c(OCc5cc(F)cc(F)c5)cc4CCN23)cc1OC readout_value=5.65
molecule=c1ccc(COc2cc3c(cc2OCc2ccccc2)[C@@H]2CCC[C@@H](c4ccccc4)N2CC3)cc1 readout_value="< 4.70"
molecule="O=C1C[C@@H](c2ccccc2)N2CCc3ccc(OCc4ccccc4)cc3[C@@H]2C1 (relative stereo)" readout_value="< 4.70"
molecule=COc1cc([C@@H]2C[C@@H](O)C[C@H]3c4cc(OCc5ccccc5)c(OCc5ccccc5)cc4CCN23)cc(OC)c1OC readout_value="< 4.70"
molecule=C[C@@H]1C[C@@H](O)C[C@H]2c3cc(OCc4cccc(F)c4)c(OCc4cccc(F)c4)cc3CCN12 readout_value=5.83
molecule=COc1ccc([C@@H]2C[C@@H](O)C[C@H]3c4cc(OCc5ccccc5)c(OCc5ccccc5)cc4CCN23)cc1OC readout_value=5.68
molecule=O[C@H]1C[C@@H](c2ccccc2)N2CCc3cc(OCc4ccccc4)ccc3[C@@H]2C1 readout_value="< 4.70"
molecule=Cc1cc(C)cc(COc2cc3c(cc2OCc2cc(C)cc(C)c2)CN(C(=O)OC(C)(C)C)CC3)c1 readout_value="< 4.70"
molecule="O=C1C[C@@H](c2ccccc2)N2CCc3cc(O)c(O)cc3[C@@H]2C1 (relative stereo)" readout_value="< 4.70"
molecule=CCCCCCCCCCCCCCCCOc1cc2c(cc1OCCCCCCCCCCCCCCCC)[C@@H]1C[C@H](O)C[C@@H](C)N1CC2 readout_value="< 4.70"
molecule=C[C@@H]1C[C@H](O)C[C@H]2c3cc(OCc4cccc(F)c4)c(OCc4cccc(F)c4)cc3CCN12 readout_value=5.35
molecule=CCCCCCCCCCCCCCCCOc1cc2c(cc1OCCCCCCCCCCCCCCCC)[C@@H]1CC(=O)C[C@@H](C)N1CC2 readout_value="< 4.70"
molecule="O=C1C=CN2CCc3cc(OCc4ccccc4)c(OCc4ccccc4)cc3C2C1 (stereo not given)" readout_value="< 4.70"
